- Test target: IRAK4 (Homo sapiens (Human))
- Sequence (Q9NWZ3 whole entry): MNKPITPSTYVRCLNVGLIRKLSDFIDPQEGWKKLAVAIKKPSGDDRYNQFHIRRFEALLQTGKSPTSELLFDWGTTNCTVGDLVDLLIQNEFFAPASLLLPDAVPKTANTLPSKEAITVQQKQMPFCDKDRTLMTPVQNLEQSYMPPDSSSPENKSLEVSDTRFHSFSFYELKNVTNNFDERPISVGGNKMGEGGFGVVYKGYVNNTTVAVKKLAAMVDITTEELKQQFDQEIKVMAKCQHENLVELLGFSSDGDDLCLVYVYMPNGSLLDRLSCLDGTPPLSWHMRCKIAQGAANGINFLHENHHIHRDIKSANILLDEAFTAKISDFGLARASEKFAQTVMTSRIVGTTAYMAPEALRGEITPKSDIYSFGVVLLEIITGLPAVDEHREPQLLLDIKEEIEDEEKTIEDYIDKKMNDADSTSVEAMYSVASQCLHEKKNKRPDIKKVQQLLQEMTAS
- Assay protocol: IRAK4 Degradation HiBiT Assay
- Condition info: Jurkat, read-out: Cellular IRAK4 HiBiT: Dmax, Table 4; HiBiT-tagged Jurkat cells, 4 hrs
Assay metric: Dmax (%)

| Molecule | Dmax / % |
| --- | --- |
| CC(C)Nc1cc(-c2ccc3cc(C#N)cnn23)ncc1-c1nnc(N2CCN(CC3CCN(c4cccc5c4n(C)c(=O)n5C4CCC(=O)NC4=O)CC3)CC2)s1 (stereo not shown) | 37 |
| CC(C)Nc1cc(-c2ccc3cc(C#N)cnn23)ncc1-c1nnc(N2CCN(CC3CCN(c4ccc(C(=O)NC5CCC(=O)NC5=O)nc4)CC3)CC2)s1 (stereo not shown) | 14 |

[I] CNc1cc(-c2ccc3cc(C#N)cnn23)ncc1-c1nnc([C@H]2CC[C@H](NC(=O)CCCCCC(=O)N[C@H](C(=O)N3C[C@H](O)C[C@H]3C(=O)N[C@@H](C)c3ccc(-c4scnc4C)cc3)C(C)(C)C)CC2)s1
[II] CC(C)Nc1cc(-c2ccc3cc(C#N)cnn23)ncc1-c1nnc(N2CCC(NC(=O)C3CCN(c4ccc5c(c4)C(=O)N(C4CCC(=O)NC4=O)C5=O)CC3)CC2)s1 (stereo not shown)
In: // max by Dmax over [ I , II ] Indicate which entry you chose by stating its label.
Out: I
